measurement_target: DNA topoisomerase 2-alpha (Homo sapiens)
measurement_description: Inhibition of human DNA topoisomerase 2alpha-mediated relaxation of supercoiled pBR322 DNA at 20 uM after 30 mins by agarose gel electrophoresis
metric_name: inhibition (%)

Worked examples, 3 compounds total:
The recorded inhibition for Cc1ccc(-c2cc(-c3ccc(Cl)o3)cc(-c3ccc(Cl)s3)n2)cc1 is 41.1

The recorded inhibition for Clc1cccc(-c2cc(-c3ccc(Cl)o3)cc(-c3ccc(Cl)s3)n2)c1 is 40.7

The recorded inhibition for Cc1ccsc1-c1cc(-c2ccc(Cl)o2)cc(-c2ccc(Cl)cc2)n1 is 40.4

1. Clc1ccc(-c2cc(-c3ccoc3)cc(-c3ccc(Cl)s3)n2)cc1
2. COc1cc([C@@H]2c3cc4c(cc3[C@@H](O[C@@H]3O[C@@H]5CO[C@@H](C)O[C@H]5[C@H](O)[C@H]3O)[C@H]3COC(=O)[C@H]23)OCO4)cc(OC)c1O [ETOPOSIDE]
3. Cc1ccsc1-c1cc(-c2ccoc2)cc(-c2ccc(Cl)cc2)n1
4. Cc1ccsc1-c1cc(-c2ccco2)cc(-c2ccccc2Cl)n1
// ascending sort on recorded inhibition I would appreciate it if you listed the labels in the requested order. 4, 3, 2, 1
(4: 3.5%, 3: 8.1%, 2: 28.9%, 1: 56.9%)

I. Cc1ccc(-c2cc(-c3ccoc3)cc(-c3ccc(Cl)s3)n2)cc1
II. Cc1ccsc1-c1cc(-c2ccc(Cl)o2)cc(-c2cccc(Cl)c2)n1
// max by inhibition over [ I , II ] Your answer should be the label attached to the chosen record. I

====

This listing pairs compounds with measured pIC50.
Test system: DU-145
measurement_description: Cytotoxicity against human DU145 cells after 4 days by ELISA reader assay
Format: functional, cell-based
condition_summary: DU-145, 96 h
Recall that pIC50 is obtained by taking minus log10 of the concentration measured in molar.

The recorded pIC50 for Cc1ccc(-c2cc(-c3ccoc3)cc(-c3ccc(Cl)s3)n2)o1 is 4.48

The recorded pIC50 for Cc1ccccc1-c1cc(-c2ccoc2)cc(-c2ccc(Cl)s2)n1 is 4.73

The recorded pIC50 for Cc1ccsc1-c1cc(-c2ccco2)cc(-c2ccc(Cl)cc2)n1 is 4.57

The recorded pIC50 for Cc1ccsc1-c1cc(-c2ccco2)cc(-c2ccccc2Cl)n1 is 4.52

The recorded pIC50 for Clc1ccc(-c2cc(-c3ccc(Cl)o3)cc(-c3ccc(Cl)s3)n2)cc1 is 4.64

Here is another compound to look at.
The recorded pIC50 for COc1cc([C@@H]2c3cc4c(cc3[C@@H](O[C@@H]3O[C@@H]5CO[C@@H](C)O[C@H]5[C@H](O)[C@H]3O)[C@H]3COC(=O)[C@H]23)OCO4)cc(OC)c1O [ETOPOSIDE] is 5.89

====

measurement_target: DNA topoisomerase 2-alpha (Homo sapiens) (UniProt P11388)
Sequence (P11388 whole entry): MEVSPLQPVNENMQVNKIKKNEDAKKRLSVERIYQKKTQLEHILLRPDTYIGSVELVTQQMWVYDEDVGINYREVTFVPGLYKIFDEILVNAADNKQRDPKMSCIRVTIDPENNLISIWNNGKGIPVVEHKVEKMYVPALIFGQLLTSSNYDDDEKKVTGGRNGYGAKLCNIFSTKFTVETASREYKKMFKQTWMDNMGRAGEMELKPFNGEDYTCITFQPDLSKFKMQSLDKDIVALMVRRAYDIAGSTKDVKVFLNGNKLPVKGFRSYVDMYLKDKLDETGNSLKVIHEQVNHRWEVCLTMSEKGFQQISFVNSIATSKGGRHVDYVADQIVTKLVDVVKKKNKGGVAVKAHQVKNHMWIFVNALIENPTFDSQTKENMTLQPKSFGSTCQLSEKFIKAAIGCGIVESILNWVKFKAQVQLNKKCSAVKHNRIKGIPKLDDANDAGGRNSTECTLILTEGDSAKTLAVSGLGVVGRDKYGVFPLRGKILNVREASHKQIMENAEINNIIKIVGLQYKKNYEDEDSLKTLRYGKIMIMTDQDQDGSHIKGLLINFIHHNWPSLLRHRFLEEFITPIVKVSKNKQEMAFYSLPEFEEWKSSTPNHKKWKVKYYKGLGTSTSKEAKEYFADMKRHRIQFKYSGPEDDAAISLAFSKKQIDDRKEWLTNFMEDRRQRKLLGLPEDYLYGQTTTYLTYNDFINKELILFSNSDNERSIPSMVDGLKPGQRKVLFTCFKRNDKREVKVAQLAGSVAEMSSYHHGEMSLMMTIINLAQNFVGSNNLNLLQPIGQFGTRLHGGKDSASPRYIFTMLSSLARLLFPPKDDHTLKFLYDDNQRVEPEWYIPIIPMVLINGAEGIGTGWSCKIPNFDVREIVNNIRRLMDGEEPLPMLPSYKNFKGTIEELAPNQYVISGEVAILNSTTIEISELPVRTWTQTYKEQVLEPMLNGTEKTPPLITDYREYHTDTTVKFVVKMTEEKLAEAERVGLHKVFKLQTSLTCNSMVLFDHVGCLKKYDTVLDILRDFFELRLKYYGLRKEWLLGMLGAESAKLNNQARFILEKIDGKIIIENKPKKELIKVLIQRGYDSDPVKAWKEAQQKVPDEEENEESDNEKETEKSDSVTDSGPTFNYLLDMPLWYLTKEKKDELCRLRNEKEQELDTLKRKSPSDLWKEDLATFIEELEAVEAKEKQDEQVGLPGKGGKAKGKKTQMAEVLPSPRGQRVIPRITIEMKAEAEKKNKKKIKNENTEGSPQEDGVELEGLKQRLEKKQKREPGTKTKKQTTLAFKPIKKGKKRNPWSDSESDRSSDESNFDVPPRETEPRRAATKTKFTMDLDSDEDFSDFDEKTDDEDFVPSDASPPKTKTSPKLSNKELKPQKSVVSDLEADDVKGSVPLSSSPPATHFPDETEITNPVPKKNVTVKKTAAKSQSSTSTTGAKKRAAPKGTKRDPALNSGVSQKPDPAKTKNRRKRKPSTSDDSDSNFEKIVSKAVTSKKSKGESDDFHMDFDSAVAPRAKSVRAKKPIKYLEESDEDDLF
measurement_description: Inhibition of human DNA topoisomerase 2alpha-mediated relaxation of supercoiled pBR322 DNA at 20 uM after 30 mins by agarose gel electrophoresis
metric_name: inhibition (%)

The recorded inhibition for Cc1ccsc1-c1cc(-c2ccoc2)cc(-c2ccco2)n1 is 36.4

A. Clc1ccc(-c2cc(-c3ccco3)nc(-c3ccc(Cl)s3)c2)o1
B. Cc1ccsc1-c1cc(-c2ccco2)cc(-c2ccc(Cl)cc2)n1
C. Cc1ccsc1-c1cc(-c2ccc(Cl)o2)cc(-c2cccnc2)n1
// ascending sort on recorded inhibition I would appreciate it if you listed the labels in the requested order. B, C, A
